value.kind: pKi
Hey, just a heads up that pKi is the negative log base 10 of the concentration in molar.

**Q:** Param readout = pKi; param system = Vasopressin V1a receptor (Homo sapiens, UniProt P37288); param query = `O=C1OC2(CCN(C3=NC(=O)C4(Cc5ccccc5C4)O3)CC2)c2ccccc21` ; response: value
Sequence (P37288 whole entry): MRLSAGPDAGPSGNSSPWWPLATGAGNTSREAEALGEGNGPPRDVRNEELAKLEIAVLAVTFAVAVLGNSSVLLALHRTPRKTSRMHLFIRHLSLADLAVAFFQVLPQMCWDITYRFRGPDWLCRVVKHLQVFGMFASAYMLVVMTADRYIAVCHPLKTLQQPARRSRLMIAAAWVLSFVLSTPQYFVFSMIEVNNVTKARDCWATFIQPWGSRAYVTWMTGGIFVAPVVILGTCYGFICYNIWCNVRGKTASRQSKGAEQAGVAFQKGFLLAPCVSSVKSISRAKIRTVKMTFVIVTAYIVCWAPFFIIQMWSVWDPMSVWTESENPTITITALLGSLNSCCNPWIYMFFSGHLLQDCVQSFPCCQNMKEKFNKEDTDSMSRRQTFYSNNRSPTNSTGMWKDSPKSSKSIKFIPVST
**A:** 9.00

Source listed as ChEMBL document CHEMBL5729588.
